- targetOrSystem: MMP-12 (Homo sapiens)
- Construct: In regard to MMP-12, catalytic domain(^100Phe˜^263Gly) was amplified with RT-PCR; His-tag; enterokinase digestion-site; made in house
- Sequence (P39900 100-263): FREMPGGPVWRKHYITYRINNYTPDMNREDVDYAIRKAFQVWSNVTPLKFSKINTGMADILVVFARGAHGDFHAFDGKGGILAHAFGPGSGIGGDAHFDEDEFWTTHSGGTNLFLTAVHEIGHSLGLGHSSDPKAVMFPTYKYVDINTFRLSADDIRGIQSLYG
- experimentalDetails: Assay for inhibitory activities on MMPs (fluorogenic MOCAc peptide substrate): MMP-12
- Type: biochemical
- conditionNotes: catalytic domain 100Phe-263Gly
propertyLabel: IC50 (µM)

compound | reportedValue
CSc1ccc(-c2cc(-c3ccc(S(=O)(=O)N[C@@H](CC(C)C)C(=O)O)cc3)no2)cc1 | 0.00029
CC(C)[C@@H](NS(=O)(=O)c1ccc(-c2cc(-c3ccc(OC(F)(F)F)cc3)no2)cc1)C(=O)O | 0.000376

(P) Cc1ccc(-c2cc(-c3ccc(S(=O)(=O)N[C@H](C(=O)O)C(C)C)cc3)no2)cc1
(Q) CC(C)[C@H](NS(=O)(=O)c1ccc(-c2cc(-c3ccc4c(c3)OCO4)on2)cc1)C(=O)O
(R) CCC(C)[C@H](NS(=O)(=O)c1ccc(-c2cc(-c3ccc(C)c(F)c3)on2)cc1)C(=O)O (stereo partly drawn)
(S) CC(C)[C@@H](NS(=O)(=O)c1ccc(-c2cc(-c3ccc4c(c3)CCO4)on2)cc1)C(=O)O
Q: Descending sort on IC50 required. Provide the ranking by listing each label in its place in the requested order.
Result: Q, P, S, R

###

- targetOrSystem: MMP-13 (Homo sapiens)
- Construct: catalytic domain (^104Tyr˜^267Gly) was amplified with RT-PCR; His-tag; enterokinase digestion-site; made in house
- experimentalDetails: Assay for inhibitory activities on MMPs (fluorogenic MOCAc peptide substrate): MMP-13
- Format: biochemical
- conditionNotes: Table 40
propertyLabel: IC50 (µM)

Past entries and their recorded results:
compound | IC50 / µM
O=C(O)C[C@@H](NS(=O)(=O)c1ccc(-c2cc(-c3ccc(C(F)(F)F)cc3)on2)cc1)C(=O)O | 0.000643
CSc1ccc(-c2cc(-c3ccc(S(=O)(=O)N[C@H](C(=O)O)C(C)C)cc3)no2)cc1 | 0.000739

(1) CCCc1ccc(-c2cc(-c3ccc(S(=O)(=O)N[C@H](CC(=O)O)C(=O)O)cc3)no2)cc1
(2) COc1ccc(-c2cc(-c3ccc(S(=O)(=O)N[C@@H](C(=O)O)C(C)C)cc3)no2)cc1F
(3) CCC(C)[C@H](NS(=O)(=O)c1ccc(-c2cc(-c3ccc(SC)cc3)on2)cc1)C(=O)O (stereo partly shown)
Q: Sort the compounds on IC50; start with the lowest figure. Kindly provide the labels arranged according to the requested ordering.
Result: 1, 3, 2
(1: 0.000223 µM, 3: 0.000578 µM, 2: 0.000836 µM)

###

- targetOrSystem: MMP-13 (Homo sapiens)
- Construct: catalytic domain (^104Tyr˜^267Gly) was amplified with RT-PCR; His-tag; enterokinase digestion-site; made in house
- experimentalDetails: Assay for inhibitory activities on MMPs (fluorogenic MOCAc peptide substrate): MMP-13
- Type: biochemical
- conditionNotes: Table 40
- Description: In regard to MMP-13, mRNA was prepared from carcinoma cell SW1353 derived from human cartilage stimulate by IL-1, TNF and catalytic domain (^104Tyr˜^267Gly) was amplified with RT-PCR. […] The enzymatic activity on MMPs was analyzed by the method described in “C. […] The value of inhibitory activity against MMP-2, MMP-8, MMP-9, MMP-12, and MMP-13 measured by above mentioned methods are shown in Table 36, 37, 38, 39, and 40 respectively.
propertyLabel: IC50 (µM)

Please review the following examples before continuing.
molecule | readingUnit | IC50
CC(C)[C@@H](NS(=O)(=O)c1ccc(-c2cc(-c3ccc(C(F)(F)F)cc3)on2)cc1)C(=O)O | µM | 0.000758
CCc1ccc(-c2cc(-c3ccc(S(=O)(=O)N[C@H](C(=O)O)C(C)CC)cc3)no2)cc1 (stereo partly shown) | µM | 0.000702
CCc1ccc(-c2cc(-c3ccc(S(=O)(=O)N[C@H](CC(=O)O)C(=O)O)cc3)no2)cc1 | µM | 0.000733
CC(C)[C@@H](NS(=O)(=O)c1ccc(-c2cc(-c3ccc(OC(F)(F)F)cc3)no2)cc1)C(=O)O | µM | 0.000263
CC(C)C[C@H](NS(=O)(=O)c1ccc(-c2cc(-c3ccc(C(C)C)cc3)on2)cc1)C(=O)O | µM | 0.000919

(1) CCc1ccc(-c2cc(-c3ccc(S(=O)(=O)N[C@@H](C(=O)O)C(C)C)cc3)no2)cc1
(2) CCc1ccc(-c2cc(-c3ccc(S(=O)(=O)N[C@H](C(=O)O)C(C)CC)cc3)no2)s1 (stereo partly shown)
Q: Lower value of IC50 belongs to which: 1 or 2 ? Pick one and reply with its label.
Result: 1
